Test system: E. coli TESEC Mtb Alr
assay: growth (OD600 after 10 h); higher = more growth (less inhibition)
test conditions: arabinose 1000000 nM; compound 0.1 mM; raw OD600 reference: median of DMSO wells 0.193, cell-free background 0.041
Structures can show the parent of a compound that is named as a salt.
Provide the reported growth of each item.

Recorded growth for `O=C1CCc2ccc(OCCCCN3CCN(c4cccc(Cl)c4Cl)CC3)cc2N1` , please?
0.117

Which growth value is on record for `CCn1cc(C(=O)O)c(=O)c2cnc(N3CCNCC3)nc21` ?
0.0845

Would you mind telling me what growth value was observed for `CCCOc1ccc2[nH]c(NC(=O)OC)nc2c1` ?
0.183

Need growth of O=C(Nc1ccccc1)OCC(CN1CCCCC1)OC(=O)Nc1ccccc1 (stereo unspecified) [Diperodon hydrochloride] , thanks.
0.0876

Please look up its growth: `C[C@H](Cc1cc2c(c(C(N)=O)c1)N(CCCO)CC2)NCCOc1ccccc1OCC(F)(F)F`
0.158

Find the recorded growth belonging to `CS(=O)(=O)c1ccc([C@@H](O)[C@@H](CO)NC(=O)C(Cl)Cl)cc1` and report it.
0.0395

* * *

Tested on: E. coli TESEC Mtb DapB
assay: growth (OD600 after 10 h); higher = more growth (less inhibition)
test conditions: arabinose induction (level): Low; compound 0.1 mM; raw OD600 reference: median of DMSO wells 0.227, cell-free background 0.041
Where a name gives a salt, the structure may show the parent alone.
measurement type: growth
The reply should be a number, written without any unit.

Name the reported growth value associated with the compound CCCNC(C)C(=O)Nc1c(C)csc1C(=O)OC (stereo not given) [Articaine hydrochloride]
0.236

Any idea what its growth is? The compound is COc1ccc(CN(CCN(C)C)c2ccccn2)cc1 [Pyrilamine maleate]
0.211

Recorded growth for CCCCOc1ccc(CC(=O)NO)cc1 [Bufexamac] , please?
0.222

Any idea what its growth is? The compound is Clc1ccc2c(c1)CCc1cccnc1C2=C1CCNCC1 [Desloratadine]
0.215

Fill in: growth of CC1CS(=O)(=O)CCN1/N=C/c1ccc([N+](=O)[O-])o1 (stereo not given) [Nifurtimox] is ___
0.251

* * *

What growth was measured for each of the following?
System: E. coli TESEC Mtb Alr
assay: growth (OD600 after 10 h); higher = more growth (less inhibition)
test conditions: arabinose 10000 nM; compound 0.1 mM; raw OD600 reference: median of DMSO wells 0.264, cell-free background 0.041
Where a name gives a salt, the structure may show the parent alone.
Format: numeric value only, no unit, no commentary.

Data request, read-out growth, for C[C@@H]1C[C@H]2[C@@H]3CCC4=CC(=O)C=C[C@]4(C)[C@@]3(Cl)[C@@H](O)C[C@]2(C)[C@@]1(OC(=O)c1ccco1)C(=O)CCl [Mometasone furoate]
0.223

Report growth for CC(CN(C)C)CN1c2ccccc2CCc2ccccc21 (configuration not stated) [Trimipramine maleate salt] please.
0.3

Record request: growth value, item COc1ccccc1N1CCN(CC(O)COc2cccc3ccccc23)CC1 (configuration not stated) [Naftopidil dihydrochloride]
0.0416

Endpoint output: growth of `CCCCNc1ccc(C(=O)OCCN(C)C)cc1` . Value?
0.255

// lookup growth for CC(=O)c1ccc(S(=O)(=O)NC(=O)NC2CCCCC2)cc1 [Acetohexamide]
0.242

# growth lookup, item CC[C@H]1OC(=O)[C@H](C)[C@@H](O[C@H]2C[C@@](C)(OC)[C@@H](O)[C@H](C)O2)[C@H](C)[C@@H](O[C@@H]2O[C@H](C)C[C@H](N(C)C)[C@H]2O)[C@](C)(O)C[C@@H](C)/C(=N\OCOCCOC)[C@H](C)[C@@H](O)[C@]1(C)O [Roxithromycin]
0.0407

Dear colleague, I am looking for the recorded growth of the following molecule: CCCCc1cc2ccccc2c(OCCN(C)C)n1 [Dimethisoquin hydrochloride]
0.162
